- Tested on: Enterobacter cloacae VGH 84-37
- Protocol summary: in vitro antibacterial MIC, agar plate dilution
- Format: cell-based
- Settings: Enterobacter cloacae, VGH8437, 18 h, 35° C., read-out: MIC
Value kind: MIC (µg/mL)

> print(dat)
                                    compound                 measured.target  comparison.sign  reading
 1  CCn1cc(C(=O)O)c(=O)c2cc(F)c(N3CCNC(c4sc5ccccc5c4C)C3)cc21 (centres unmarked)  Enterobacter cloacae VGH 84-37                >      256
 2  CCn1cc(C(=O)O)c(=O)c2cc(F)c(N3CCN(C)CC3)c(F)c21  Enterobacter cloacae VGH 84-37                =     0.03
 3  CCn1cc(C(=O)O)c(=O)c2cc(F)c(N3CCNC(c4sc5ccc(Cl)cc5c4C)C3)cc21 (centres unmarked)  Enterobacter cloacae VGH 84-37                >      256
 4  CCn1cc(C(=O)O)c(=O)c2cc(F)c(N3CCNC(CN4CCN(C)CC4)C3)cc21 (centres unmarked)  Enterobacter cloacae VGH 84-37                =        4
 5  O=C(O)c1cn(-c2ccc(F)cc2)c2cc(N3CCNC(c4ccco4)C3)c(F)cc2c1=O (centres unmarked)  Enterobacter cloacae VGH 84-37                =     0.25
 6  CCn1cc(C(=O)O)c(=O)c2cc(F)c(N3CCNC(CF)C3)c(F)c21 (single isomer, unassigned; (-)) [Example 64]  Enterobacter cloacae VGH 84-37                =     0.06
 7  CCn1cc(C(=O)O)c(=O)c2cc(F)c(N3CCN(C)C(c4cccs4)C3)cc21 (centres unmarked)  Enterobacter cloacae VGH 84-37                =        4
 8  CCn1cc(C(=O)O)c(=O)c2cc(F)c(N3CCNC(c4cc(C)cs4)C3)cc21 (centres unmarked)  Enterobacter cloacae VGH 84-37                =      0.5
 9  CCn1cc(C(=O)O)c(=O)c2c(F)c(F)c(N3CCN(C)CC3)c(F)c21  Enterobacter cloacae VGH 84-37                =     0.12
10  CN1CCN(c2cc3c(cc2F)c(=O)c(C(=O)O)cn3C2CC2)CC1c1ccsc1 (centres unmarked)  Enterobacter cloacae VGH 84-37                =     0.25
11  CCn1cc(C(=O)O)c(=O)c2cc(F)c(N3CCN(C)C(CF)C3)cc21 (centres unmarked)  Enterobacter cloacae VGH 84-37                =        1
12  CCn1cc(C(=O)O)c(=O)c2cc(F)c(N3CCN(C)C(c4ccc(Br)s4)C3)cc21 (centres unmarked)  Enterobacter cloacae VGH 84-37                >      256
13  CCn1cc(C(=O)O)c(=O)c2cc(F)c(N3CCN(C)C(c4cc5cc(Cl)ccc5o4)C3)cc21 (centres unmarked)  Enterobacter cloacae VGH 84-37                >      256
14  CCn1cc(C(=O)O)c(=O)c2cc(F)c(N3CCNC(c4ccco4)C3)cc21 (centres unmarked)  Enterobacter cloacae VGH 84-37                ≤     0.12
